I'd be grateful if you could share measured lowest phenotypically active concentration for these entries.
Test system: A549-CANX-COX4
experimental protocol: lowest phenotypically active concentration; higher = less potent
assay conditions: treatment time: 24 h

Ask: # value lookup — system A549-CANX-COX4, readout lowest phenotypically active concentration, item Cc1ccc2nc(NCCN)c3ncc(C)n3c2c1
Reply: 9 µM

Ask: # value lookup — system A549-CANX-COX4, readout lowest phenotypically active concentration, item COc1cc(C)c(Sc2cnc(NC(=O)c3ccc(CNC(C)C(C)(C)C)cc3)s2)cc1C(=O)N1CCN(C(C)=O)CC1 (stereo not given)
Reply: 9 µM

Ask: # value lookup — system A549-CANX-COX4, readout lowest phenotypically active concentration, item CC(=O)O[C@H]1C(=O)[C@@]2(C)[C@H]([C@H](OC(=O)c3ccccc3)[C@]3(O)C[C@H](OC(=O)[C@H](O)[C@@H](NC(=O)c4ccccc4)c4ccccc4)C(C)=C1C3(C)C)[C@]1(OC(C)=O)CO[C@@H]1C[C@@H]2O
Reply: ≤ 0.3 µM

Ask: # value lookup — system A549-CANX-COX4, readout lowest phenotypically active concentration, item CN(C)CCCN1c2ccccc2Sc2ccc(Cl)cc21
Reply: 9 µM

Ask: # value lookup — system A549-CANX-COX4, readout lowest phenotypically active concentration, item CN(C)C(=O)C(CCN1CCC(O)(c2ccc(Cl)cc2)CC1)(c1ccccc1)c1ccccc1 [loperamide]
Reply: 9 µM

Ask: # value lookup — system A549-CANX-COX4, readout lowest phenotypically active concentration, item O=C(O)c1ccc(Nc2ncc3c(n2)-c2ccc(Cl)cc2C(c2c(F)cccc2F)=NC3)cc1
Reply: ≤ 0.3 µM

Ask: # value lookup — system A549-CANX-COX4, readout lowest phenotypically active concentration, item Cc1nnc(-c2ccc3occ(-c4ccc(S(C)=O)cc4)c3c2)o1 (stereo not given)
Reply: 9 µM

Ask: # value lookup — system A549-CANX-COX4, readout lowest phenotypically active concentration, item C[C@@H]1C[C@H]2[C@@H]3C[C@H](F)C4=CC(=O)C=C[C@]4(C)[C@@]3(F)[C@@H](O)C[C@]2(C)[C@@]1(O)C(=O)COC(=O)C(C)(C)C [flumethasone pivalate]
Reply: ≤ 0.3 µM

Ask: # value lookup — system A549-CANX-COX4, readout lowest phenotypically active concentration, item C=CC(=O)Nc1cccc(Nc2nc(Nc3ccc(OCCOC)cc3)ncc2F)c1
Reply: 3 µM

Ask: # value lookup — system A549-CANX-COX4, readout lowest phenotypically active concentration, item Cc1n[nH]c2ccc(-c3cncc(OC[C@@H](N)Cc4ccccc4)c3)cc12
Reply: ≤ 0.3 µM
